target: Transcription factor p65 (Homo sapiens); assay: Inhibition of TNF-alpha-stimulated human NF-kappaB p65 RelA subunit nuclear translocation in HUVEC relative to control; format: cell-based
assay.readout: Efficacy

Record lookup: for Transcription factor p65 (Homo sapiens), what Efficacy belongs to O=S1(=O)Nc2c(ccc3cccnc23)-c2cc(C(F)(F)F)ccc21 ?
> 90%

Record lookup: for Transcription factor p65 (Homo sapiens), what Efficacy belongs to COc1ccc(S(=O)(=O)Nc2cccc3ccc(C)nc23)c([N+](=O)[O-])c1 ?
78%

Record lookup: for Transcription factor p65 (Homo sapiens), what Efficacy belongs to O=S(=O)(Nc1cccc2cccnc12)c1ccc(Br)s1 ?
> 90%

Record lookup: for Transcription factor p65 (Homo sapiens), what Efficacy belongs to O=[N+]([O-])c1ccc(S(=O)(=O)Nc2cccc3cccnc23)cc1 ?
> 90%

Record lookup: for Transcription factor p65 (Homo sapiens), what Efficacy belongs to O=[N+]([O-])c1cc(C(F)(F)F)ccc1S(=O)(=O)Nc1cccc2cccnc12 ?
> 90%
